system under test: recombinant rat MASP2 active protease (amino acids 296-685, C-terminal His Tag) (rat, UniProt Q9JJS8 296-685)
Sequence (Q9JJS8 other isoform, or with tags, fused parts or gaps limits assumed): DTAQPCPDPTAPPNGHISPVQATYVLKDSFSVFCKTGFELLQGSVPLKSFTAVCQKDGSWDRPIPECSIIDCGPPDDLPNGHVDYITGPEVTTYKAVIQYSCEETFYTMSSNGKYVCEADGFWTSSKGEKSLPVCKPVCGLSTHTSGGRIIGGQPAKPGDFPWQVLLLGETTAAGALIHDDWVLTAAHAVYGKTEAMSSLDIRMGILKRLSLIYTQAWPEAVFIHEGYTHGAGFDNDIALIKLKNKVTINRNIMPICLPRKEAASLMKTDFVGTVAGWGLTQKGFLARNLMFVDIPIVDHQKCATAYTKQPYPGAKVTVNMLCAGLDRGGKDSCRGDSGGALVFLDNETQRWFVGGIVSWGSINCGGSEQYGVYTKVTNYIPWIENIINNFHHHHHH
assay details: cell-based or functional assay
Numbered stars: 1 amine (or outer) side, 2 acyl side, 3 side chain; on linkers, the order of the positions; unused ones are H or OH. Bridge positions count the residues as written; N and C are the ends. Square brackets hold non-standard residues; d marks the D form. Primed or numbered codes have the meaning given here. Ends that are not written are not given here. * marks the point of attachment. X15 = (3S)‑2‑azaspiro(4.4)nonane‑3‑carboxylic acid, O=C([C@@H]1CC2(CCCC2)CN1[*:1])[*:2]; Tranexamic″ = tranexamic acid, NC[C@H]1CC[C@@H](C(=O)*)CC1; NHCH2(1,3-C6H4)CH2CO = O=C(Cc1cccc(CN[*:1])c1)[*:2]; Oic = O=C(O)[C@@H]1C[C@@H]2CCCC[C@@H]2N1; tBuAla = CC(C)(C)C[C@H](N)C(=O)O; Pen = CC(C)(S)[C@H](N)C(=O)O; Sar = CNCC(=O)O
API: label(entry) gives Yes if the entry's rat MASP2 IC50 is strictly smaller than 10 nM; on equality or larger values it gives No.

{"columns": ["binder", "group label"],
 "data": [
  ["[Sar]ICSRSLP[Oic]I[Pen]IP[NHCH2(1,3-C6H4)CH2CO]-OH (disulfide 3-11; N-terminus assumed; SMILES CC[C@H](C)[C@H](NC(=O)CNC)C(=O)N[C@H]1CSSC(C)(C)[C@@H](C(=O)N[C@H](C(=O)N2CCC[C@H]2C(=O)NCc2cccc(CC(=O)O)c2)[C@@H](C)CC)NC(=O)[C@H]([C@@H](C)CC)NC(=O)[C@@H]2C[C@@H]3CCCC[C@@H]3N2C(=O)[C@@H]2CCCN2C(=O)[C@H](CC(C)C)NC(=O)[C@H](CO)NC(=O)[C@H](CCCNC(=N)N)NC(=O)[C@H](CO)NC1=O) [Example 477: ((N-Me)G)-IC+SRSLP-(Oic)-I-(Pen)+IP-(3-Aminomethylphenylacetic acid)-OH]", "No"],
  ["{Tranexamic″}-ICSRS[tBuAla]PPI[Pen]IP-NH2 (disulfide 2-10; SMILES CC[C@H](C)[C@@H]1NC(=O)[C@@H]2CCCN2C(=O)[C@@H]2CCCN2C(=O)[C@H](CC(C)(C)C)NC(=O)[C@H](CO)NC(=O)[C@H](CCCNC(=N)N)NC(=O)[C@H](CO)NC(=O)[C@@H](NC(=O)[C@@H](NC(=O)[C@H]2CC[C@@H](CN)CC2)[C@@H](C)CC)CSSC(C)(C)[C@@H](C(=O)N[C@H](C(=O)N2CCC[C@H]2C(N)=O)[C@@H](C)CC)NC1=O) [Example 269: (Tranexamic)-IC+SRS-((tBu)A)-PPI-(Pen)+IP-NH2]", "Yes"],
  ["[Sar]ICSRS[tBuAla]P[X15]I[Pen]IPD-OH (disulfide 3-11; N-terminus assumed; SMILES CC[C@H](C)[C@H](NC(=O)CNC)C(=O)N[C@H]1CSSC(C)(C)[C@@H](C(=O)N[C@H](C(=O)N2CCC[C@H]2C(=O)N[C@@H](CC(=O)O)C(=O)O)[C@@H](C)CC)NC(=O)[C@H]([C@@H](C)CC)NC(=O)[C@@H]2CC3(CCCC3)CN2C(=O)[C@@H]2CCCN2C(=O)[C@H](CC(C)(C)C)NC(=O)[C@H](CO)NC(=O)[C@H](CCCNC(=N)N)NC(=O)[C@H](CO)NC1=O)", "No"],
  ["[Sar]ICSRSLP[Oic]I[Pen]IPP[(2S)‑3‑(Triazol-1-yl)‑2‑(amino)propanoic acid]-NH2 (disulfide 3-11)", "No"]
]}
